# maps each entry to its phosphorylation enrichment
System: AncSZ;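 also: 11-residue human phosphosite peptides and single-mutation variants displayed on the E. coli surface, counted by deep sequencing, each peptide's frequency after selection divided by its frequency in the unselected input library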;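 also: frequency after pTyr selection over input frequency; kinase dosed for 20-30% of maximal phosphorylation in three min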
Assay procedure: phosphorylation enrichment, bacterial display (enrichment ratio); higher = better substrate or ligand; peptides without Tyr show the background
Value type: phosphorylation enrichment

sequence_record="FGSVMYEFVGK [SLC18A1_Y251]" value=2.6
sequence_record="RVVVPYEPPEV [TP53_Y220_S215R]" value=1.01
sequence_record="EFTAGYNVKFD [GPX4_Y123_A120T]" value=0.762
sequence_record="NFDLDYDSVQP [MYC_Y16_YF]" value=2
sequence_record="GMEIVYVYVKK [DNAI2_Y5]" value=1.24
sequence_record="SIKNKYVTALY [KCNH2_Y611_D609N]" value=0.559
sequence_record="PSARTYCYKQE [KLHDC9_Y175]" value=1.14
sequence_record="EVLKNYNQQKD [GOLGA4_Y1551]" value=0.949
sequence_record="YETSHYPASPD [CTNND2_Y1217]" value=0.858
sequence_record="NDKLCYEVSSP [CDH13_Y66_R65C]" value=1.52
sequence_record="TVQVAYFTMMM [SPATA17_Y83_YF]" value=1.04
sequence_record="RTEAQYRFIFM [PTPN11_Y511_Q506R_YF]" value=1.37
sequence_record="PLLEFYWDIFT [CDAN1_Y713_R714W_YF]" value=0.971
sequence_record="GGDQPYSGAGD [TYRO3_Y828_R824G]" value=0.673
sequence_record="PEFVVYKPQME [CCRL2_Y170]" value=1.7
sequence_record="ITLPIYTKGSE [ANK2_Y1455_E1458G]" value=0.63
sequence_record="SNMPTYSGHFS [GRIN2A_Y1224_T1229S]" value=0.594
sequence_record="KNKNRSKNILP [PTPN11_Y279_Y279S]" value=0.732
sequence_record="EKKDIYKAGEQ [CFH_Y1008_V1007I]" value=0.493
sequence_record="NVFGNYNNQSS [HNRNPA1_Y318_D314V]" value=0.475
sequence_record="EKEQNYDLTEV [ECD_Y448]" value=1.31
sequence_record="NKEPRYQEDPP [TJP2_Y479]" value=0.852
sequence_record="AHEALYLEADL [CENPF_Y1920_E1915A]" value=1.82
sequence_record="WSFNLYDINKD [KCNIP3_Y174_A170S]" value=1.36
sequence_record="CTTIHYNYMYN [TP53_Y234_C238Y]" value=1.12
sequence_record="LDLPGYCLLRE [CCDC116_Y291_P293L]" value=1.82
sequence_record="PMQLPHDSTWE [PDGFRB_Y589_Y589H]" value=2.22
sequence_record="AIFEGYALPHA [ACTC1_Y171_P166A_YF]" value=0.732
sequence_record="LQEKSYIKGTS [LCTL_Y331]" value=1.33
sequence_record="TSESSYYKSLN [NGEF_Y288_A286S]" value=0.76
sequence_record="SSYPDYLAAVD [GLB1_Y154_D151Y]" value=1.36
sequence_record="VKKKLDEEIDQ [CYP17A1_Y329_Y329D]" value=0.839
sequence_record="VVQGLYKSMPK [KBTBD2_Y250]" value=0.53
sequence_record="FIGVTYKNKED [PDGFRA_Y993_E996K_YF]" value=0.776
sequence_record=TRTEAYAVSSF value=0.58
sequence_record="TCFDKYTGSTY [FN1_Y101_N104S]" value=0.843
sequence_record="KFRREYILSLE [GPC3_Y299_W296R_YF]" value=0.786
sequence_record="TTPGPHRSIFF [MPG_Y71_Y71H_YF]" value=0.502
sequence_record="HDRNTYEKFLE [TF_Y666_G671E_YF]" value=1.07
sequence_record="NYCPGYNNFYN [USH2A_Y467_R464C]" value=0.988
sequence_record="KPVEEYANCHL [TF_Y593]" value=0.96
sequence_record="KQLFAYKMLMA [TMC2_Y209_YF]" value=0.858
sequence_record="GTHCHYKAPIV [FZD9_Y569_T573I]" value=1.32
sequence_record="EAESWYQTKFE [KRT75_Y342_YF]" value=1.06
sequence_record="FADIAYNYRHR [PAH_Y166_G171R]" value=0.624
sequence_record="SAEEDYKADAK [KCNT1_Y876_M877K]" value=1.18
sequence_record="NNIDFYKNTTN [FGFR2_Y657_K659N_YF]" value=0.746
sequence_record="GRQGIYTKNER [GPR143_Y231_E233K]" value=0.422
sequence_record="IDDNEYAYLKA [HNF4A_Y286]" value=1.24
sequence_record="GCRSKYVGLWG [KCNQ1_Y184]" value=0.61
sequence_record="IHADIYRWFNI [MARS1_Y344]" value=1.22
sequence_record="ILTLKYPIELG [ACTA1_Y71_H75L]" value=0.886
sequence_record="IVRSLYEDVED [VHL_Y185_L188V]" value=1.3
sequence_record="IALSKYGRVKW [FGF6_Y186_R191W]" value=0.603
sequence_record="ADAGMYGVLPW [PLP1_Y207_R205G]" value=0.803
sequence_record="SGVNKYSTAFG [GJB3_Y16]" value=0.613
sequence_record="LNYNEYFRDLN [HPRT1_Y198_D194N]" value=1.82
